MEASURED TARGET: Sphingosine 1-phosphate receptor 1 (Homo sapiens)
PROCEDURE TEXT: S1P1 receptor antagonists, human, confirmation, counter-screen for OPRK1 antagonist project, cell-based, fluorescence (AID 652087)
CONDITION PARAMETERS: Tango EDG-1-bla U2OS, beta-lactamase FRET, S1P antagonism; at 9 µM; hits give high values

| MOLECULE | UNITS SYMBOL | inhibition |
| --- | --- | --- |
| O=C(/C=C/c1cc(-c2ccccc2)c(C(F)(F)F)s1)c1cccs1 | % | 23.6 |
| O=[N+]([O-])c1ccc(C2=NN(c3ccccc3)C(c3ccco3)C2)cc1 (stereo unspecified) | % | 124 |
| O=[N+]([O-])c1ccc(N/N=C2\CCOc3ccc(F)cc32)cc1 | % | 23.2 |
| CCOC(=O)c1cn[nH]c1NC(=S)Nc1cccc(C(F)(F)F)c1 | % | 71.7 |
| CN(C)c1cccc2c1c(NC(=O)Nc1ccc(OCc3ccccc3)cc1)nn2C | % | -0.3 |
| N#Cc1cccc(C#N)c1Oc1ccc(N)cc1 | % | 15.3 |
